Measured cytotoxicity at 10 µM accompanies every entry in the list below.
assay: Toxicity liver stage against HepG2, at 10uM; format: cell-based; parameters: test concentration 10 uM, cell line HepG2-A16-CD81EGFP; conditions: human, HepG2-A16-CD81EGFP cells; read-out: INHIBITION
// note: answer is a bare numeric in %

>>> print(df.to_string())
                      molecule         property_label  value
0  Cn1cnc2c1CCN(CCCc1ccccc1)C2  cytotoxicity at 10 µM  -1.13

Determine from records and report cytotoxicity at 10 µM for c1nc2n(c1CN1CCOCC1)CCN(C1CCOC1)CC2 (stereo unspecified)
-136

Determine from records and report cytotoxicity at 10 µM for "Cc1ccc(S(=O)(=O)NC(=O)COc2cccc(C#N)c2)c(C)c1"
3.73

Determine from records and report cytotoxicity at 10 µM for "CCc1n[nH]c(SCC(=O)N2CCc3[nH]nc(C4CCC4)c3C2)n1"
-12.1

Determine from records and report cytotoxicity at 10 µM for O=C(O)c1ccc(C2CCCN(C(=O)c3ccc[nH]3)C2)cc1 (stereo unspecified)
-10.5

Determine from records and report cytotoxicity at 10 µM for Cc1cc(C)n(C2CCCN(C(=O)c3cc(C(N)=O)cs3)C2)n1 (stereo unspecified)
-11.4

Determine from records and report cytotoxicity at 10 µM for "CC(C)CNC(=O)CNC(=O)c1nc(Cc2c(Cl)cccc2Cl)no1"
9.11

Determine from records and report cytotoxicity at 10 µM for "CNc1cc(-c2ccc(COCCN)cc2)c2cc[nH]c2n1"
5.89

Determine from records and report cytotoxicity at 10 µM for "CCCc1cc(=O)[nH]c(-n2nc(C3CC3)cc2N)n1"
31.3

Determine from records and report cytotoxicity at 10 µM for "CN(C)CCNc1cc(-c2ccc[nH]c2=O)c2cc[nH]c2n1"
9.26

Determine from records and report cytotoxicity at 10 µM for "Cc1cccc(-n2cc3nc(N4CCC(C)CC4)[nH]cc-3c2=O)c1"
0.738

---

test: Toxicity liver stage against HepG2, at 10uM; assay type: cell-based; parameters: test concentration 10 uM, cell line HepG2-A16-CD81EGFP; details: human, HepG2-A16-CD81EGFP cells; read-out: INHIBITION
property_label: cytotoxicity at 10 µM (%)
// note: answer is a bare numeric in %

These solved cases illustrate the format of a correct answer.
                                   compound  value
0  CN(C)Cc1ccnc(C2CCCN2Cc2ccc3ncccc3c2)n1 (configuration not stated)  0.026
1  Cc1nc(C)n(C2CCCN(C(=O)c3ccccc3C)C2)n1 (configuration not stated)   1.59
2  O=C(NCCc1cccs1)[C@H]1CO[C@H]2CCN(CC3CC3)C[C@H]2C1   -103

Determine from records and report cytotoxicity at 10 µM for COCCC1(CNC(=O)NC2CCCN(C)C2)CC1 (configuration not stated)
-0.926

Determine from records and report cytotoxicity at 10 µM for "CC(=O)NCCC(=O)NC1(c2ccc(Cl)c(Cl)c2)CC1"
7.49

Determine from records and report cytotoxicity at 10 µM for CC(=O)NC1CCCN(C(=O)CNc2cccc(C)c2Cl)C1 (configuration not stated)
-4.69

Determine from records and report cytotoxicity at 10 µM for "CN1CCN(c2ncccc2N)CC1"
11.5

Determine from records and report cytotoxicity at 10 µM for "Cc1cccc(C(C)(C)CNC(=O)CCSc2nnnn2C)c1"
-1.09

Determine from records and report cytotoxicity at 10 µM for "CC(C)N1CC[C@H](c2nc3ccc(C(F)(F)F)cc3[nH]2)C1"
-2.07

Determine from records and report cytotoxicity at 10 µM for "Cn1cc(CN2CCC3(CCCCN3S(C)(=O)=O)CC2)cn1"
-76.9

Determine from records and report cytotoxicity at 10 µM for "CCc1cc(C(=O)NCC2CCN(Cc3ccncc3)CC2)on1"
10.4

Determine from records and report cytotoxicity at 10 µM for "O=C1O[C@@H]2CN(c3ccc(Cl)cn3)C[C@@H]2N1CCc1ccc(F)cc1"
-2.77
